The entries below are paired with their reported molar heat capacity at constant pressure.
methodSummary: molar heat capacity at constant pressure
particulars: 355.15 K; 101.33 kPa; Liquid; Small sample (50 mg) DSC
Answer with a number only, understood to be in J/K/mol.

Consider the following illustrative entries.
| compound | quantityName | readingUnit | value |
| --- | --- | --- | --- |
| CCCCCCn1cc[n+](C)c1.O=S(=O)([O-])C(F)(F)F [1-hexyl-3-methylimidazolium trifluoromethanesulfonate] | molar heat capacity at constant pressure | J/K/mol | 548 |
| O | molar heat capacity at constant pressure | J/K/mol | 75.53 |
| CCCC[n+]1ccccc1.O=S(=O)([N-]S(=O)(=O)C(F)(F)F)C(F)(F)F [1-butylpyridinium bis[(trifluoromethyl)sulfonyl]imide] | molar heat capacity at constant pressure | J/K/mol | 603 |
| CCCCCCCCn1cc[n+](C)c1.O=S(=O)([O-])C(F)(F)F [1-octyl-3-methylimidazolium trifluoromethanesulfonate] | molar heat capacity at constant pressure | J/K/mol | 631 |

Please examine the following record next.
Query :: Look up molar heat capacity at constant pressure: `CCCCCC[n+]1ccn(C)c1.O=S(=O)([N-]S(=O)(=O)C(F)(F)F)C(F)(F)F`
Result :: 691

meta.source: the NIST ThermoML archive (doi:10.1016/j.fluid.2006.03.015)
